measured_on: Oxytocin receptor (Rattus norvegicus)
Sequence (P70536 whole entry): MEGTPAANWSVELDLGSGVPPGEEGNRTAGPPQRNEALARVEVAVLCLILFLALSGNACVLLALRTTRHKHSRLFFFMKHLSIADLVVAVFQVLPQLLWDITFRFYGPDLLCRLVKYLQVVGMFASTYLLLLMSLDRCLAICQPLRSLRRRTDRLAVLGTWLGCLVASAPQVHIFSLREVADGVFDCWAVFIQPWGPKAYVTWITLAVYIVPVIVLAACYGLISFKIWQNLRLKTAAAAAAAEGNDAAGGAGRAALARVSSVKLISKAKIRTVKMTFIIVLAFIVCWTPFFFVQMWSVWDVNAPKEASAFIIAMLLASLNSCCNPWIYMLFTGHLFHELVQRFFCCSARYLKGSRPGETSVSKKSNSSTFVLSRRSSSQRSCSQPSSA
assay_procedure: Half-maximal inhibition of binding of [3H]oxytocin to OT receptor in rat uterine tissue
quantity_name: IC50 (nM)

compound	operator	measured_number
O=S(=O)(c1cccc(Br)c1)N1CCC2(C=Cc3ccccc32)CC1	>	10000
CCOC(=O)C(C)[C@@]1(O)CC2CC[C@]1(CS(=O)(=O)N1CCC3(C=Cc4ccccc43)CC1)C2(C)C (some centres not stated)	=	890
CC1(C)C2CC[C@@]1(CS(=O)(=O)N1CCC3(C=Cc4cccc(Cl)c43)CC1)C(=O)C2	>	10000
CC1(C)C2CC[C@@]1(CS(=O)(=O)N1CCC3(CCCc4ccccc43)CC1)[C@@H](O)C2	=	1000
CC1(C)C(=O)[C@]2(CS(=O)(=O)N3CCC4(C=Cc5ccccc54)CC3)CCC1C2(C)C	=	3400
CC1(C)C2CC[C@@]1(CS(=O)(=O)N1CCC3(CCc4ccccc43)CC1)[C@H](O)C2 (single isomer, unassigned)	=	340
CC1(C)C2CC[C@@]1(CS(=O)(=O)NCCC1CCc3ccccc31)C(=O)C2 (some centres not stated)	=	2200
CC(C(=O)O)[C@@]1(O)CC2CC[C@]1(CS(=O)(=O)N1CCC3(C=Cc4ccccc43)CC1)C2(C)C (some centres not stated)	=	1400
O=[N+]([O-])c1ccccc1S(=O)(=O)N1CCC2(C=Cc3ccccc32)CC1	>	10000
Cc1cccc2c1C1(C=C2)CCN(S(=O)(=O)C[C@]23CCC(CC2=O)C3(C)C)CC1	=	6200
CCOC(=O)C1(c2ccccc2)CCN(S(=O)(=O)c2ccc(C)cc2)CC1	>	30000
CC1(C)C2CC[C@@]1(CS(=O)(=O)N1CCC3(CCCc4ccccc43)CC1)C(=O)C2	=	1100
O=S(=O)(c1ccccc1Br)N1CCC2(C=Cc3ccccc32)CC1	>	10000
CC1C(=O)[C@]2(CS(=O)(=O)N3CCC4(C=Cc5ccccc54)CC3)CCC1C2(C)C (some centres not stated)	=	1300
CC1(C)C2CC[C@@]1(CS(=O)(=O)N1CCC3(C=Cc4ccc(F)cc43)CC1)C(=O)C2	=	2300
CC1(C)C2CC[C@@]1(CS(=O)(=O)N1CCC3(C=Cc4ccccc43)CC1)[C@@H](O)C2	=	2200
COc1ccc2c(c1)C1(C=C2)CCN(S(=O)(=O)C[C@]23CCC(C[C@H]2O)C3(C)C)CC1	>	10000
O=C(NC12CC3CC(CC(C3)C1)C2)N1CCC2(C=Cc3ccccc32)CC1	>	10000
O=C(Cc1ccccc1)N1CCC2(C=Cc3ccccc32)CC1	=	5000
CC1(C)C2CC[C@@]1(CS(=O)(=O)N1CCC3(C=Cc4cc(F)ccc43)CC1)[C@@H](O)C2	=	1900
O=C(c1ccc(Br)cc1)N1CCC2(C=Cc3ccccc32)CC1	>	10000
O=C1CCCCC1CS(=O)(=O)N1CCC2(C=Cc3ccccc32)CC1 (configuration not stated)	=	6400
C[C@@H]1C2CC[C@@](CS(=O)(=O)N3CCC4(C=Cc5ccccc54)CC3)([C@H]1O)C2(C)C	=	590
CC1(C)C2CC[C@@]1(CS(=O)(=O)N1CCC3(CC1)c1ccccc1-c1ccccc13)C(=O)C2	>	10000
CC1(C)C2CC[C@@]1(CS(=O)(=O)N1CCC3(C=Cc4ccccc43)CC1)C(=O)C2	=	1800
CC1(C)C2CC[C@@]1(CS(=O)(=O)N1CCC3(C=Cc4ccc(F)cc43)CC1)[C@@H](O)C2	=	1900
O=C(Nc1ccccc1)N1CCC2(C=Cc3ccccc32)CC1	=	10000
Cc1ccc(S(=O)(=O)N2CCC3(CCc4ccccc43)CC2)cc1	=	5700
CC1(C)C2CC[C@@]1(CC(=O)N1CCC3(C=Cc4ccccc43)CC1)C(=O)C2	=	760
Cc1cccc(S(=O)(=O)N2CCC3(C=Cc4ccccc43)CC2)c1	>	10000
CS(=O)(=O)N1CCC2(C=Cc3ccccc32)CC1	>	100000
CC1(C)C2CC[C@@]1(CS(=O)(=O)N1CCC3(C=Cc4ccccc43)CC1)[C@@](O)(CC(=O)O)C2	=	780
CC(C)C(=O)NC1C(=O)[C@]2(CS(=O)(=O)N3CCC4(CCc5ccccc54)CC3)CCC1C2(C)C (some centres not stated)	=	3000
COC(=O)C[C@@]1(O)CC2CC[C@]1(CS(=O)(=O)N1CCC3(C=Cc4ccccc43)CC1)C2(C)C	=	350
CC1(C)C2CC[C@@]1(CS(=O)(=O)N1CCC3(C=Cc4c(Cl)cccc43)CC1)C(=O)C2	>	10000
CC1(C)C2CC[C@@]1(CS(=O)(=O)N1CCC3(C=Cc4ccccc43)CC1)[C@@](O)(CC#N)C2	=	770
Cc1ccc(S(=O)(=O)N2CCC3(CC2)c2ccccc2-c2ccccc23)cc1	>	100000

These data points were gathered from ChEMBL document CHEMBL1125325.
